Test system: HCV replicon
Test: HCV replicon replication assay (NPTII ELISA)
Type: cell-based, Hepatitis C virus (Huh-7 cells)
Settings: Hepatitis C virus, Huh-7, 72 h, inhibition of HCV replicon replication in Huh-7 HCV replicon-containing cells, three days incubation, NPT level by ELISA; read-out: EC50
Catalogue of EC50 values

- compound: "CCCCCCCCOc1ccc(N(CC(N)=O)c2nc(-c3ccc(OCC(N)=O)cc3)cs2)cc1 [Compound 82]"
  EC50: "> 10000 nM"
- compound: "CCCCCOc1ccc(N(C(=O)CN(C)C)c2nc(-c3cccnc3)cs2)cc1C(F)(F)F [Compound 41]"
  EC50: "< 1000 nM"
- compound: "COc1ccc(N(C(N)=O)c2nc(-c3cccnc3)cs2)cc1C(F)(F)F [Compound 84]"
  EC50: "< 1000 nM"
- compound: "CCCCCCCCOc1ccc(N(C(=O)NC2CCCCC2)c2nc(-c3cccnc3)cs2)cc1 [Compound 88]"
  EC50: "1000 to 10000 nM"
- compound: "CC/C=N/N(c1ccc(OCCCCCCCC)cc1)c1nc(-c2cccnc2)cs1 [Compound 188]"
  EC50: "< 1000 nM"
- compound: "CCCCCOc1ccc(N(C(=O)C(C)C)c2nc(-c3cccnc3)cs2)cc1C(F)(F)F [Compound 14]"
  EC50: "< 1000 nM"
- compound: "CCCCCCCCc1ccc(N(C(N)=O)c2nc(-c3cccnc3)c(F)s2)cc1C(F)(F)F [Compound 178]"
  EC50: "< 1000 nM"
- compound: "CCCCCCCCc1ccc(N(C(=O)OCC[N+](C)(C)C)c2nc(-c3cccnc3)c(F)s2)cc1C(F)(F)F [Compound 181]"
  EC50: "< 1000 nM"
- compound: "CCCCCCCCc1ccc(N(C(=O)OCCOP(=O)(O)O)c2nc(-c3cccnc3)c(F)s2)cc1C(F)(F)F [Compound 183]"
  EC50: "< 1000 nM"
- compound: "CCCCCCCCOc1ccc(N(C(=O)CNC(=O)OC(C)(C)C)c2nc(-c3cccnc3)c(F)s2)cc1C(F)(F)F [Compound 164]"
  EC50: "< 1000 nM"
- compound: "CCCCCOc1ccc(N(C)c2nc(-c3cccnc3)cs2)cc1C(F)(F)F [Compound 2]"
  EC50: "< 1000 nM"
- compound: "CCCCCOc1ccc(N(C(=O)OC)c2nc(-c3ccc(F)c(F)c3)cs2)cc1C(F)(F)F [Compound 56]"
  EC50: "< 1000 nM"
- compound: "CCCCCOc1ccc(N(CC(=O)N(CC)CC)c2nc(-c3cccnc3)cs2)cc1C(F)(F)F [Compound 9]"
  EC50: "> 10000 nM"
- compound: "CCCCCOc1ccc(N(C(=O)C2CC2)c2nc(-c3cccnc3)cs2)cc1F [Compound 26]"
  EC50: "< 1000 nM"
- compound: "CCCCCOc1ccc(N(C(=O)C(=O)OC)c2nc(-c3ccc(F)cc3)cs2)cc1F [Compound 45]"
  EC50: "< 1000 nM"
- compound: "CCCCCOc1ccc(N(C(N)=O)c2nc(-c3ccncc3)cs2)cc1F [Compound 141]"
  EC50: "> 10000 nM"

These data points were gathered from patent US20070213301A1.
